target: E3 ubiquitin-protein ligase XIAP (Homo sapiens); experiment: small molecules binding XIAP protein – biophysical, small-molecule microarray, fluorescence 635 nm, primary screen (AID 1181); details: higher = more signal;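 further: score merges 667 nm emission and signal to noise over triplicate slides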
Label Met when composite z-score is at or above -0.04; anything below gets Not met.

Worked examples follow.
- MOLECULE: "COCCCNC(=O)[C@@]1(Cc2ccccc2)COC(c2ccc(OCCCO)cc2)=N1"
  LABEL VALUE: "Not met"
- MOLECULE: "CC(C)c1ccc(NN2C(C(O)c3ccccn3)C=CC3C(=O)N(c4ccccc4)C(=O)C32)cc1 (centres undefined)"
  LABEL VALUE: "Not met"
- MOLECULE: "CCCC=C(CCC)[C@@H](NC(=O)Cc1ccccc1)c1ccc(C(=O)OC)cc1"
  LABEL VALUE: "Met"
- MOLECULE: "COC(=O)[C@@]1(Cc2ccccc2)[C@H]2c3cc(C(=O)N4CCCC4)n(Cc4ccccc4)c3C[C@H]2CN1C(=O)c1ccccc1"
  LABEL VALUE: "Met"

Task item: Determine whether this molecule has composite z-score no lower than -0.04: `COCCOC(=O)N1C(=O)[C@@]2(c3cc(C#Cc4ccc(OC)cc4)ccc31)[C@H](C(=O)N1CCc3cc(OC)c(OC)cc3C1)[C@H]1C(=O)O[C@H](c3ccccc3)[C@H](c3ccccc3)N1[C@@H]2c1ccc(O)cc1`
Reply: Met

Task item: API: above_or_equal(metric=composite z-score, cutoff=-0.04) for item CC(C)C(CO)N1C(=O)[C@@H]2[C@H]3C(=O)OCC=C[C@H]3OC23C=CCN(CCN2CCOCC2)C(=O)[C@@H]13 (some centres undefined)
Reply: Not met

---

biological target: Fibroblast growth factor 10 (Homo sapiens) (UniProt O15520); experiment: compounds binding fibroblast growth factor 10 – biochemical, small-molecule microarray, 635 nm fluorescence, primary screen (AID 1102); settings: FGF10 binding, fluorescence 635 nm, higher = more signal
Sequence (O15520 whole entry, looked up): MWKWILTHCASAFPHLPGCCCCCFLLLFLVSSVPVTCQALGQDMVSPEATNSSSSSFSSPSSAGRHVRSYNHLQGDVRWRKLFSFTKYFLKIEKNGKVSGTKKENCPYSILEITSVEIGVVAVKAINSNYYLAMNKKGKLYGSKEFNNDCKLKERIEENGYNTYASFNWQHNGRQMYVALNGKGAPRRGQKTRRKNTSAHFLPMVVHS
# if value of composite z-score reaches 0.5, tag 1.0; if it stays below, tag 0.0

- MOLECULE: "C=C(COC)C(=O)CC[C@H](OC(=O)c1ccccc1-c1ccccc1C(=O)O)c1ccc(CO)o1"
  LABEL VALUE: 1.0
- MOLECULE: "CC(C)(C)OC(=O)CC[C@@]1(C(=O)N2CCCCC2)N=C(c2ccc(OCCCO)cc2)O[C@@H]1c1ccccc1CN=[N+]=[N-]"
  LABEL VALUE: 1.0
- MOLECULE: "Cc1ccc(S[C@]2(C(=O)NCCN3CCOCC3)CC(=O)N(C3Cc4ccccc4C3)[C@@H]2c2ccc(CO)cc2)cc1"
  LABEL VALUE: 0.0
- MOLECULE: "COC(=O)[C@@]1(Cc2ccc(OC)cc2)[C@H]2c3cc(C(=O)N4CCCC4)n(CCF)c3C[C@H]2CN1C(=O)c1ccccc1"
  LABEL VALUE: 1.0
- MOLECULE: "COCCOC(=O)N1C(=O)[C@@]2(c3cc(C#CCC(C(=O)OC)C(=O)OC)ccc31)[C@H](C(=O)N1CCCCCCC1)[C@H]1C(=O)O[C@H](c3ccccc3)[C@H](c3ccccc3)N1[C@@H]2c1ccc(O)cc1"
  LABEL VALUE: 1.0

Task item: API: above_or_equal(metric=composite z-score, cutoff=0.5) for item C=CCC(OC(C)=O)[C@@H]1[C@@H](N(Cc2cccc3ccccc23)C(=O)Cc2ccc(F)cc2)c2cc(OCCCO)ccc2N1C(=O)Cc1ccc(OC)cc1 (some centres not stated)
Reply: 0.0

Task item: Is reported composite z-score greater than or equal to 0.5 here: `CO[C@H]1O[C@H](CO)[C@@H](OC(=O)Nc2ccc(C(F)(F)F)cc2)[C@H](OC(=O)Nc2ccccc2)[C@H]1OC(=O)Nc1ccccc1`
Reply: 1.0

Task item: Has O=C1C2C=CC(C(O)c3ccc(Br)cc3)N(Nc3ccccc3)C2C(=O)N1c1ccccc1 (configuration not stated) a recorded composite z-score greater than or equal to 0.5?
Reply: 0.0

Task item: Test whether the molecule `CCOC(=O)C1=CC[C@@H](c2ccccc2)N(S(=O)(=O)c2ccc(C)cc2)[C@H]1C=C(C)C` records composite z-score of 0.5 or higher.
Reply: 1.0

---

experiment: compound effects on multiple myeloma cell viability – MM1S, calcein-AM fluorescence, 48 h, basal, profiling panel (AID 1165); conditions: higher = more signal; further: test concentration not given here
OBSERVED PROPERTY: z-score

Task item: Fill in the blank: the reported z-score of `C[C@@H]1ON(c2ccccc2)[C@H](c2ccccc2)[C@H]1C(=O)N1C(=O)OC[C@H]1Cc1ccccc1` is ____.
Reply: -1.4

Task item: GET /values?readout=z-score&item= `CC(C)N1C(=O)c2ccccc2[C@](C)(C(=O)O)[C@@H]1c1ccc(CO)cc1`
Reply: 0.0364

---

assay: probe aCHRDL2 binding to arrayed compounds – biochemical, biotinylated probe, 635/667 nm fluorescence, primary screen (AID 1100); conditions: small-molecule microarray, higher = more signal
In this section, each of the molecules is paired with its reported composite z-score.
// return just the number, without any unit appended

// below: answered molecules
- MOLECULE: "Cc1ccc(S[C@]2(C(=O)NCCN3CCOCC3)CC(=O)N(C3Cc4ccccc4C3)[C@@H]2c2ccc(CO)cc2)cc1"
  NUMERIC VALUE: 0.64
- MOLECULE: "[N-]=[N+]=Nc1ccccc1C[C@]1(C(=O)NCCN2CCOCC2)N=C(c2ccc(OCCCO)cc2)O[C@H]1c1ccccc1N=[N+]=[N-]"
  NUMERIC VALUE: 1.07
- MOLECULE: "CC(C)C[C@@H]1NC(=O)[C@@]23C(=O)N[C@@H](Cc4ccccc4)C2[C@H](C)[C@@]2(C)O[C@H]2C3/C=C/C/C=C\\CNC(=O)[C@@H]2CCCN2C1=O (some centres not stated)"
  NUMERIC VALUE: -0.719
- MOLECULE: "CCCCC(O)C1C=CC2C(=O)N(Cc3ccccc3)C(=O)C2N1n1cnnc1 (configuration not stated)"
  NUMERIC VALUE: 0.213
- MOLECULE: "COCCOC(=O)N1C(=O)[C@@]2(c3cc(C#CCCO)ccc31)[C@H](C(=O)N1CCc3cc(OC)c(OC)cc3C1)[C@H]1C(=O)O[C@H](c3ccccc3)[C@H](c3ccccc3)N1[C@@H]2c1ccc(OCCO)cc1"
  NUMERIC VALUE: -0.199

Task item: Could you share which composite z-score value was measured for `C=C(CCCC)/C(=C/C[C@@H](OC(=O)c1ccncc1)c1ccccc1OCCO)c1cc(C(=O)OC)ccc1OC` ?
Reply: -0.133

Task item: What value of measured composite z-score is listed for `O=C(NCc1ccccc1)[C@]1(Cc2ccccc2)N=C(c2ccc(OCCCO)cc2)O[C@@H]1c1ccccc1` ?
Reply: 0.75

---

molecular target: Homeobox protein Hox-A13 (Mus musculus); test: disruptors of Hoxa13 oligonucleotide interaction – biochemical, fluorescence polarization, labeled oligonucleotide, primary screen (AID 1185); details: Hoxa13:DNA binding, 15 min, higher = more signal, called active from +8 up or from −8 down
OBSERVED PROPERTY: z-score
Number only, please.

Completed entries (count: 8):
- COMPOUND: "O=C1C2C=CC(C(O)c3cccc4ccccc34)N(Nc3ccccc3)C2C(=O)N1c1ccccc1 (centres undefined)"
  TGT: "Homeobox protein Hox-A13 (Mus musculus)"
  z-score: -0.231
- COMPOUND: "CN(C)CCCCCCNC(=O)[C@@H]1C[C@@H]2C(=O)NCC(=O)N2[C@@H]1c1ccc(O)cc1"
  TGT: "Homeobox protein Hox-A13 (Mus musculus)"
  z-score: -1.63
- COMPOUND: "[N-]=[N+]=Nc1ccccc1C[C@]1(C(=O)NCCN2CCOCC2)N=C(c2ccc(OCCCO)cc2)O[C@H]1c1ccccc1N=[N+]=[N-]"
  TGT: "Homeobox protein Hox-A13 (Mus musculus)"
  z-score: -3.22
- COMPOUND: "C=C[C@H](C)[C@H](OC(=O)Nc1ccc(SC)cc1)c1ccc(O)c2ccccc12"
  TGT: "Homeobox protein Hox-A13 (Mus musculus)"
  z-score: -5.27
- COMPOUND: "N#Cc1ccc(NN2C(C(O)c3ccccc3)C=CC3C(=O)N(c4ccccc4)C(=O)C32)cc1 (centres undefined)"
  TGT: "Homeobox protein Hox-A13 (Mus musculus)"
  z-score: -2.61
- COMPOUND: "C=CCNC(=O)[C@@H]1[C@H]2C(=O)O[C@H](c3ccccc3)[C@H](c3ccccc3)N2[C@H](c2ccc(O)cc2)[C@@]12C(=O)Nc1ccc(C#CCCO)cc12"
  TGT: "Homeobox protein Hox-A13 (Mus musculus)"
  z-score: -5.14
- COMPOUND: "C[C@H]1NC(=O)C([C@@H](C)OCc2ccccc2)NC(=O)[C@@]23C(=O)N[C@@H](Cc4ccccc4)C2[C@H](C)[C@@]2(C)O[C@H]2C3/C=C/CC/C=C/CNC1=O (some centres undefined)"
  TGT: "Homeobox protein Hox-A13 (Mus musculus)"
  z-score: -6.35
- COMPOUND: "COc1ccc(CCNC(=O)[C@@H]2c3ccccc3C(=O)N(Cc3ccccc3C(F)(F)F)[C@H]2c2ccc(CO)cc2)cc1"
  TGT: "Homeobox protein Hox-A13 (Mus musculus)"
  z-score: -3.85

Task item: Entry under review: `O=c1c2ccc(Br)cc2nc(-c2ccccc2)n1Cc1cccc(O)c1` . Reported z-score?
Reply: -3.01

Task item: Quick check: z-score of `O=C1N(CCS(=O)(=O)c2ccccc2)c2ccccc2[C@H]2OC(c3ccc(OCCCO)cc3)=N[C@@]12CCS(=O)(=O)c1ccccc1` ?
Reply: 0.758

Task item: Which z-score is listed for `CCCN1C(=O)[C@@H]2Cc3c([nH]c4ccccc34)[C@@H](c3cccc(O)c3)N2C1=O` ?
Reply: -0.802

Task item: Return reported z-score; argument: `COc1ccc([Si](C)(C)[C@H]2[C@H](CCn3cc(CCO)nn3)O[C@@]3(C(=O)N(Cc4cccc(N5C(=O)c6cccc7cccc5c67)c4)c4ccccc43)[C@@H]2C)cc1`
Reply: -2.56

Task item: Any idea what z-score was measured for C=CC[C@@]1(C(=O)NCC(O)CO)N=C(c2ccc(OCCCO)cc2)O[C@@H]1c1ccccc1 (some centres undefined) ?
Reply: -4.25

Task item: Look up z-score: CCCc1cc2c(n1Cc1ccc(OC)cc1)C(C)C1CN(C(=O)c3ccccc3)C(C)(C(=O)OC)C21 (centres undefined)
Reply: -3.45

Task item: // returns reported z-score for input `CC(C)(C)OC(=O)CC[C@]1(C(=O)N2CCCCC2)N=C(c2ccc(OCCCO)cc2)O[C@H]1c1ccccc1CN=[N+]=[N-]`
Reply: -2.91

Task item: Given the entry `C=C(CCCC)/C(=C/C[C@@H](OC(=O)c1ccncc1)c1ccccc1OCCO)c1cc(C(=O)OC)ccc1OC` , report its measured z-score.
Reply: -3.47

Task item: Any idea what its z-score is? The compound is `O=C1O[C@H](c2ccccc2)[C@H](c2ccccc2)N2[C@H]1[C@@H](C(=O)N1CCN(c3ncccn3)CC1)[C@]1(C(=O)Nc3ccc(C#CCCO)cc31)[C@H]2c1ccccc1OCCO`
Reply: -1.29

Task item: Look up z-score: `CC(C)CNC(=O)[C@@]1(c2ccc([N+](=O)[O-])cc2)CC(=O)N(C(C)C)[C@@H]1c1ccc(CO)cc1`
Reply: -1.21

Task item: # input compound: `COc1cccc(C)c1NC(=O)O[C@H]1[C@H](OC(=O)Nc2ccccc2)[C@H](OC(=O)Nc2ccccc2)[C@@H](OC)O[C@@H]1CO` ; wanted: its z-score
Reply: -5.38

Task item: Recorded z-score for `COCCOC(=O)N1C(=O)[C@@]2(c3cc(C#CC4(O)CCCCCC4)ccc31)[C@H](C(=O)NC[C@H](O)c1ccccc1)[C@H]1C(=O)O[C@H](c3ccccc3)[C@H](c3ccccc3)N1[C@@H]2c1ccc(OCCO)cc1` , please?
Reply: -0.375
